biological target: DNA gyrase (Escherichia coli, UniProt P0AES4+P0AES6); experiment: Inhibition of Escherichia coli DNA gyrase supercoiling activity by Microplate Assay kit method
Kindly state pIC50 for each of the entries shown.
A value of pIC50 is the negative decimal logarithm of a concentration given in moles per litre.

Ask: I have this molecule here, CCn1cc(-c2nc(/N=C/c3ccc(Br)cc3)n[nH]2)c(=O)c2cc(Br)c(C)nc21 , and I need its recorded pIC50.
Result: 5.21

Ask: Continue with CCn1cc(-c2nc(/N=C/c3ccc(F)cc3)n[nH]2)c(=O)c2ccc(C)nc21
Result: 5.01

* * *

system: PC-3; assay: Anticancer activity against human PC-3 cells assessed as cell growth inhibition incubated for 24 hrs by MTT assay; assay type: functional, cell-based; conditions: PC-3, 24 h
OBSERVATION_TYPE: IC50 (µM)
Dear colleague, please return just the value in µM, with no unit written.

Ask: Value wanted: IC50 (PC-3) of entry CC1CNCC(C)N1c1ccc(Nc2nccc(N3CCn4c(nnc4-c4ccc(F)c(Cl)c4)C3)n2)cc1 (stereo unspecified)
Result: 5.52
